Reported TGI values for a set of molecules
- System: COLO 205 colon
- experiment-summary: NCI tumour cell line growth inhibition, 48 h

{"molecule": "COC1CCN(N(C)C)O1 (stereo not given)", "TGI": "> 100 µM"}
{"molecule": "COC1=CC(=O)c2c(ccc3ncnc(N)c23)C1=O", "TGI": "6.77 µM"}
{"molecule": "O=C1NC2c3c(I)sc(I)c3/C(=N\\O)C2O1 (stereo not given)", "TGI": "48.8 µM"}
{"molecule": "COc1cc(/C=C/C(=O)Nc2ccc3c(c2)/C(=C\\c2cccn2C)C(=O)N3)cc(OC)c1OC", "TGI": "14.2 µM"}
{"molecule": "COc1nc(NC2OC(COC(C)=O)C(OC(C)=O)C(OC(C)=O)C2OC(C)=O)c2c(OC(C)=O)c(C)c(=O)oc2n1 (stereo not given)", "TGI": "> 100 µM"}
{"molecule": "CCOC(=O)/C=C/C1=C(c2ccsc2)c2ccc(OC)cc2CC1", "TGI": "1.36 µM"}
{"molecule": "C=CCc1cc(OC)c2c(c1)C(OC(C)=O)CC(c1ccc(OC)c(OC)c1)O2 (stereo not given)", "TGI": "> 100 µM"}
{"molecule": "O=C1C(Cl)=C(Nc2cccc(O)c2)C(=O)N1CCc1ccccc1", "TGI": "> 100 µM"}
{"molecule": "COC(=O)[C@](NC(=O)OCc1ccccc1)([C@@H](C)S(=O)c1ccc(C)cc1)C(F)(F)F (stereo not given in full)", "TGI": "64.7 µM"}
{"molecule": "CCN1C(=O)N(C)C(O)c2c1nc1ccccn1c2=O (stereo not given)", "TGI": "37.6 µM"}

----------
- System: ACHN renal
- experiment-summary: NCI tumour cell line growth inhibition, 48 h
Decision: TGI >= 30 µM yields Condition met, all other cases yield Condition not met.

{"compound": "CCOC(=O)c1c(NC(=O)COc2cccc3cccnc23)sc(C(=O)N(C)C)c1C", "qualitative-label": "Condition met"}
{"compound": "C=C1C(=O)O[C@@H]2O[C@@]3(C)CC[C@H]4[C@H](C)CC[C@@H]1[C@@]24O3", "qualitative-label": "Condition not met"}
{"compound": "N#CC[C@@H](O)COc1ccccc1", "qualitative-label": "Condition met"}
{"compound": "NCCc1c[nH]c2ccc(OC(=O)C(=O)O)cc12", "qualitative-label": "Condition met"}
{"compound": "NCCCCCCn1c(-c2ccc(Br)cc2)csc1=Nc1ccccc1", "qualitative-label": "Condition not met"}
{"compound": "COc1cccc2c1C(=O)c1c(O)c3c(c(O)c1C2=O)CC(O)(/C(C)=N/NC(=O)CCCCC(=O)N/N=C(\\C)C1(O)Cc2c(O)c4c(c(O)c2C(OC2CC(N)C(O)C(C)O2)C1)C(=O)c1c(OC)cccc1C4=O)CC3OC1CC(N)C(O)C(C)O1 (stereo not given)", "qualitative-label": "Condition not met"}
{"compound": "O=C(NC(=S)Nc1ccccn1)c1ccccc1", "qualitative-label": "Condition met"}
{"compound": "CNc1ccc(/C=C2\\C=Cc3ccccc32)cc1", "qualitative-label": "Condition met"}
{"compound": "CCCc1nc(N)nc(C(=O)Nc2cccc(C(F)(F)F)c2)c1CC", "qualitative-label": "Condition met"}
{"compound": "CCCSc1ccc2nc(NC(=O)OC)[nH]c2c1", "qualitative-label": "Condition met"}

Recorded values, source PubChem BioAssay (NCI).
